Data provenance: paper PMC9609428

# System: carrageenan-induced paw edema
# test-description: In vivo carrageenan-induced paw edema in mice
# setup-conditions: 10 µmol/kg b.wt po, 2 h after carrageenan
Reported percentage anti-inflammatory activity (AI%), 2 h values follow for various compounds
assay-metric: percentage anti-inflammatory activity (AI%), 2 h

> print(dat)
                                   compound  numeric.result
1  O=C(O)Cc1ccccc1Nc1c(Cl)cccc1Cl [Diclofenac, diclofenac, reference compound]           41.72
2  CC(=NNC(=O)Cc1ccccc1Nc1c(Cl)cccc1Cl)c1nnn(-c2ccc(S(=O)(=O)Nc3nccs3)cc2)c1C           58.28
3  Cc1ccc(-c2cc(C(F)(F)F)nn2-c2ccc(S(N)(=O)=O)cc2)cc1 [Celecoxib, celecoxib, reference compound]           70.86
4  CC(=NNC(=O)c1ccccc1O)c1nnn(-c2ccc(S(=O)(=O)Nc3nccc(C)n3)cc2)c1C           73.51
5  CC(=NNC(=O)C(C)c1ccc(CC(C)C)cc1)c1nnn(-c2ccc(S(=O)(=O)Nc3nccs3)cc2)c1C (centres unmarked)           86.75

====

Reported pIC50 values follow for various compounds
Target sequence: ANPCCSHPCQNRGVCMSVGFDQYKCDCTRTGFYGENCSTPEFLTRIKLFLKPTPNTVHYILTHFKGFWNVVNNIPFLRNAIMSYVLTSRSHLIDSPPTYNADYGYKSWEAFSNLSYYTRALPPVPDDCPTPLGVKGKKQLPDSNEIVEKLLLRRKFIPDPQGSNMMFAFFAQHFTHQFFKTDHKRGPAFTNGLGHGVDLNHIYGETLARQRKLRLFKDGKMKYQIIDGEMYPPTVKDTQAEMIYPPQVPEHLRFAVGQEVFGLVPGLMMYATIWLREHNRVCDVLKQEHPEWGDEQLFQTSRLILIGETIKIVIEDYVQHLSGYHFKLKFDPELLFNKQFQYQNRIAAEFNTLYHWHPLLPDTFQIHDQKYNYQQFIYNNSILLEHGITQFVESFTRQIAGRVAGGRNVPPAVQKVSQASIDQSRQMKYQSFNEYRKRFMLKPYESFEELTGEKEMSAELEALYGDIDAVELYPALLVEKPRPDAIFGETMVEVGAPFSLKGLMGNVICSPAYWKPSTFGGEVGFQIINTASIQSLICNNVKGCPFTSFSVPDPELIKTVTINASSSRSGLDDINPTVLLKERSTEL
pIC50: −log10 of the molar value.
assay-metric: pIC50

> print(dat)
                                   compound  assay.metric  numeric.result
1  CC(=O)c1nnn(-c2ccc(S(=O)(=O)Nc3ncccn3)cc2)c1C         pIC50            7.05
2  CC(=NNC(=O)c1ccccc1O)c1nnn(-c2ccc(S(=O)(=O)Nc3nccc(C)n3)cc2)c1C         pIC50            7.40
3  CC(=NNC(=O)c1ccccc1O)c1nnn(-c2ccc(S(=O)(=O)Nc3nccs3)cc2)c1C         pIC50            7.05
4  CC(=NNC(=O)Cc1ccccc1Nc1c(Cl)cccc1Cl)c1nnn(-c2ccc(S(=O)(=O)Nc3nccs3)cc2)c1C         pIC50            7.30
5  CC(=NNC(=O)C(C)c1ccc(CC(C)C)cc1)c1nnn(-c2ccc(S(=O)(=O)Nc3nccs3)cc2)c1C (stereo not drawn)         pIC50            7.40
6  CC(=NNC(=O)C(C)c1ccc(CC(C)C)cc1)c1nnn(-c2ccc(S(=O)(=O)Nc3ncccn3)cc2)c1C (stereo not drawn)         pIC50            7.15
